- experimental-target: human TrkA receptor (Homo sapiens (Human))
- experimental-details: DiscoverX PathHunter TrkA functional assay
- test-settings: U2OS cells expressing human TrkA-ProLink, Shc1-EA and p75NTR; compound 1 h, then NGF at ~80% of maximal response for 3 h; luminescence
reported-metric: IC50

1. Cc1nc(-c2nc(C)n(C)c2NC(=O)c2ccc(C(F)(F)F)c(-c3ccn(C)n3)c2)cs1; 590 nM

--- query ---
**Query** Entry Cn1ccc(-c2cc(C(=O)Nc3cc(CN4C(=O)CNC4=O)nn3-c3ccc(F)cc3)c(F)cc2C(F)(F)F)n1 : reported IC50 = ?
**Result** 1.9 nM

====

- experimental-target: UniProtKB P04629
- experimental-details: DiscoverX PathHunter TrkA functional assay
- test-settings: U2OS cells expressing human TrkA-ProLink, Shc1-EA and p75NTR; compound 1 h, then NGF at ~80% of maximal response for 3 h; luminescence
Lab note: anything with IC50 below 6 nM is marked Y; values at 6 nM or higher are marked N.

1. Cn1ccc(-c2cc(C(=O)Nc3cn[nH]c3-c3ccccc3)ccc2C(F)(F)F)n1; N
2. Cn1ccc(-c2cc(C(=O)Nc3cc(-c4ccc(=O)[nH]n4)nn3-c3ccccc3)ccc2OC(F)(F)F)n1; N
3. Cn1ccc(-c2cc(C(=O)Nc3cc(Cc4ccc(=O)[nH]n4)nn3-c3ccccc3)ccc2C(F)(F)F)n1; N
4. Cn1ccc(-c2cc(C(=O)Nc3cn[nH]c3-c3ccccc3)c(Cl)cc2C(F)(F)F)n1; Y

**Query** In plain terms, does Cn1ccc(-c2cc(C(=O)Nc3cc(Cc4nnn(C)n4)nn3-c3ccccc3)c(Cl)cc2C(F)(F)F)n1 come in under 6 nM for IC50?
**Result** Y

====

- experimental-target: human TrkA receptor (Homo sapiens (Human), UniProt P04629)
- Sequence (P04629 33-796): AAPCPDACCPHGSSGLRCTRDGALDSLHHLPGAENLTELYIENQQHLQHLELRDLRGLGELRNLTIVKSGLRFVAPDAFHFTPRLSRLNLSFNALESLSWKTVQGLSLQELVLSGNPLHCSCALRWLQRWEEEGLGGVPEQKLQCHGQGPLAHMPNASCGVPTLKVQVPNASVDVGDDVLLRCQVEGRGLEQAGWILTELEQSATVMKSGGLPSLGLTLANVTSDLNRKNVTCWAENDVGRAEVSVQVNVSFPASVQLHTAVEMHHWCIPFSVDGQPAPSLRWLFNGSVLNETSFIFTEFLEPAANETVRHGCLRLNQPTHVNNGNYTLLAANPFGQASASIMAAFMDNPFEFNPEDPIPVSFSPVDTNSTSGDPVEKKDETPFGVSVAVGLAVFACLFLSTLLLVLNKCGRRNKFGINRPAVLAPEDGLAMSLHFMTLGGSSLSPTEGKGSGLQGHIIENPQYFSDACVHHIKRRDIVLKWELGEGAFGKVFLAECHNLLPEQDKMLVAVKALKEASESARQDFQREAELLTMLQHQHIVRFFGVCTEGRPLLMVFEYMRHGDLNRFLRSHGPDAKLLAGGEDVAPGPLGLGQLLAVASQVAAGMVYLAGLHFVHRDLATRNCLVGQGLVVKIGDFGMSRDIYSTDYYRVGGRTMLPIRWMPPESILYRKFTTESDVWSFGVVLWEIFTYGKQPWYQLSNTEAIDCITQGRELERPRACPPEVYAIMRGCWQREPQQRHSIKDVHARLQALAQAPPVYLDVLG
- experimental-details: DiscoverX PathHunter TrkA functional assay
- test-settings: U2OS cells expressing human TrkA-ProLink, Shc1-EA and p75NTR; compound 1 h, then NGF at ~80% of maximal response for 3 h; luminescence
Reported IC50 is given for each of the following molecules.
Entry rule: numbers only, all in nM.

Guide cases for IC50, answers given:
1. Cn1ccc(-c2cc(C(=O)Nc3cc(Cc4ccc[nH]c4=O)nn3-c3ccc(F)cc3)ccc2C(F)(F)F)n1; 3.8
2. Cn1ccc(-c2cc(C(=O)Nc3cc(Cc4ccc(=O)[nH]n4)nn3-c3ccc(F)cc3)c(F)cc2C(F)(F)F)n1; 0.98
3. O=C(Nc1cc(-c2ccncc2)nn1-c1cc(C(F)(F)F)n[nH]1)c1ccc(Cl)c(-c2cc[nH]n2)c1; 240

**Query** Entry Cn1ccc(-c2cc(C(=O)Nc3cc(Cc4nnn(C)n4)nn3-c3ccc(F)cc3)c(F)cc2C(F)(F)F)n1 : reported IC50 = ?
**Result** 1.2

====

- experimental-target: human TrkA receptor (Homo sapiens (Human))
- experimental-details: DiscoverX PathHunter TrkA functional assay
- test-settings: U2OS cells expressing human TrkA-ProLink, Shc1-EA and p75NTR; compound 1 h, then NGF at ~80% of maximal response for 3 h; luminescence
Reported IC50 is given for each of the following molecules.
Entry rule: numbers only, all in nM.

1. Cc1nc(-c2ccccc2)c(NC(=O)c2ccc(C(F)(F)F)c(-c3ccn(C)n3)c2)n1C [Compound 14]; 20
2. Cc1nc(-c2ccncc2)c(NC(=O)c2ccc(C(F)(F)F)c(-c3ccn(C)n3)c2)n1C [Compound 52]; 2100
3. Cc1cc(-n2nc(C(=O)NCc3ccns3)cc2NC(=O)c2ccc(C(F)(F)F)c(-c3ccn(C)n3)c2)[nH]n1 [Compound 25]; 1.7
4. O=C(Nc1cc(-c2ccc(CCO)cc2)nn1-c1ccc(F)cc1)c1cc(-c2ncccn2)c(C(F)(F)F)cc1F [Compound 101]; 3.4
5. Cn1ccc(-c2cc(C(=O)Nc3cc(Cc4nnnn4C)nn3-c3ccccc3)c(Cl)cc2C(F)(F)F)n1 [Compound 59]; 1.7
6. Cc1csc(-c2cc(C(=O)Nc3cc(-c4ccccn4)nn3-c3cc(C)[nH]n3)ccc2C(F)(F)F)n1 [Compound 6]; 1.7

--- query ---
**Query** Entry Cc1nc(NC(=O)c2ccc(C(F)(F)F)c(-c3ccn(C)n3)c2)n(-c2ccccc2)n1 [Compound 15] : reported IC50 = ?
**Result** 150

====

- experimental-target: human TrkA receptor (Homo sapiens (Human), UniProt P04629)
- experimental-details: DiscoverX PathHunter TrkA functional assay
- test-settings: U2OS cells expressing human TrkA-ProLink, Shc1-EA and p75NTR; compound 1 h, then NGF at ~80% of maximal response for 3 h; luminescence
Reported log10 of IC50 is given for each of the following compounds.
Field: value | Transform: log10 | Quantity: IC50 | Unit: nM

**Query** Entry Cn1ccc(-c2cc(C(=O)Nc3cc(CC(N)=O)nn3-c3ccc(F)cc3)c(F)cc2C(F)(F)F)n1 [Compound 111] : reported log10 of IC50 = ?
**Result** 0.38

**Query** Entry Cn1ccc(-c2cc(C(=O)Nc3cc(Cc4nnc(N)o4)nn3-c3ccc(F)cc3)ccc2C(F)(F)F)n1 [Compound 92] : reported log10 of IC50 = ?
**Result** 0.11

====

- experimental-target: human TrkA receptor (Homo sapiens (Human), UniProt P04629)
- experimental-details: DiscoverX PathHunter TrkA functional assay
- test-settings: U2OS cells expressing human TrkA-ProLink, Shc1-EA and p75NTR; compound 1 h, then NGF at ~80% of maximal response for 3 h; luminescence
Lab note: anything with IC50 below 80 nM is marked Criterion met; values at 80 nM or higher are marked Criterion not met.

1) Cc1nc(-c2ccccc2)c(NC(=O)c2cc(-c3ccn(C)n3)c(C(F)(F)F)cc2F)n1C [Compound 63]; Criterion met
2) Cn1ccc(-c2cc(C(=O)Nc3oncc3-c3ccccc3)ccc2C(F)(F)F)n1 [Compound 17]; Criterion not met
3) Cc1csc(-c2cc(C(=O)Nc3cc(-c4ccncc4)nn3-c3ccccc3)ccc2Cl)n1 [Compound 21]; Criterion met
4) Cc1cc(-n2nc(C(=O)NCc3cncnc3)cc2NC(=O)c2ccc(C(F)(F)F)c(-c3ccn(C)n3)c2)[nH]n1 [Compound 83]; Criterion met
5) O=C(Nc1sc(-c2cnn(CCO)c2)nc1-c1ccccc1)c1cc(-c2ncccn2)c(C(F)(F)F)cc1F [Compound 106]; Criterion met
6) O=C(NC1CC1)c1cc(NC(=O)c2ccc(C(F)(F)F)cc2Cl)n(-c2ccccc2)n1 [Compound 2]; Criterion met
7) Cn1ccc(-c2cc(C(=O)Nc3cc(-c4ncccn4)nn3-c3ccc(F)cc3)ccc2C(F)(F)F)n1 [Compound 60]; Criterion met
8) O=C(Nc1cn[nH]c1-c1ccccc1)c1cc(-c2cc[nH]n2)c(C(F)(F)F)cc1F [Compound 62]; Criterion not met

**Query** In plain terms, does Cn1ccc(-c2cc(C(=O)Nc3[nH]ncc3-c3ccccc3)c(Cl)cc2C(F)(F)F)n1 [Compound 45] come in under 80 nM for IC50?
**Result** Criterion met

**Query** In plain terms, does Cc1nc(-c2ccccc2)c(NC(=O)c2ccc(C(F)(F)F)cc2F)s1 [Compound 1] come in under 80 nM for IC50?
**Result** Criterion not met

**Query** In plain terms, does Cc1cccc(-c2cc(C(=O)Nc3cc(-c4ccncc4)nn3-c3ccc(F)cc3)ccc2C(F)(F)F)n1 [Compound 30] come in under 80 nM for IC50?
**Result** Criterion met

**Query** In plain terms, does Cc1cc(-n2nc(CNCCO)cc2NC(=O)c2ccc(C(F)(F)F)c(-c3ccn(C)n3)c2)[nH]n1 [Compound 68] come in under 80 nM for IC50?
**Result** Criterion not met

**Query** In plain terms, does CC(O)c1cnc(-c2cc(NC(=O)c3cc(-c4ccn(C)n4)c(C(F)(F)F)cc3F)n(-c3ccc(F)cc3)n2)nc1 (single isomer, unassigned) [Compound 107] come in under 80 nM for IC50?
**Result** Criterion met

**Query** In plain terms, does O=C(Nc1cc(Cc2n[nH]c(=O)o2)nn1-c1ccc(F)cc1)c1cc(-c2ncccn2)c(C(F)(F)F)cc1F [Compound 113] come in under 80 nM for IC50?
**Result** Criterion met

====

Reported pIC50 is given for each of the following compounds.
- experimental-target: human TrkA receptor (Homo sapiens (Human), UniProt P04629)
- experimental-details: DiscoverX PathHunter TrkA functional assay
- test-settings: U2OS cells expressing human TrkA-ProLink, Shc1-EA and p75NTR; compound 1 h, then NGF at ~80% of maximal response for 3 h; luminescence
Entry type: numeric. Quantity: pIC50, the -log10 of concentration in molar units.

Guide cases for pIC50, answers given:
1. Cn1cc(Cc2cc(NC(=O)c3ccc(C(F)(F)F)c(-c4ccn(C)n4)c3)n(-c3ccc(F)cc3)n2)cn1; 8.44
2. Cc1nc(-c2cc(C(=O)Nc3cc(-c4ccncc4)nn3-c3ccc(F)cc3)ccc2C(F)(F)F)no1; 6.28
3. O=C(Nc1cc(-c2ccncc2)nn1-c1ccc(F)cc1)c1ccc(Cl)c(-c2cc[nH]n2)c1; 6.96
4. CNC(=O)c1cc(NC(=O)c2cc(-c3ncccn3)c(C(F)(F)F)cc2F)n(-c2ccc(F)cc2)n1; 8.15
5. Cc1nc(-c2ccccc2)c(NC(=O)c2ccc(C(F)(F)F)c(-c3ccn(C)n3)c2)s1; 8.22
6. Cn1ccc(-c2cc(C(=O)Nc3cc(-c4ccncc4)nn3-c3ccccc3)c(Cl)cc2C(F)(F)F)n1; 9.43

**Query** Entry Cc1cc(NC(=O)c2ccc(OC(F)(F)F)c(-c3ccn(C)n3)c2)n(-c2ccc(F)cc2)n1 : reported pIC50 = ?
**Result** 7.24

**Query** Entry Cn1ccc(-c2cc(C(=O)Nc3cc(-c4ccncc4)nn3-c3ccc(F)c(F)c3)ccc2C(F)(F)F)n1 : reported pIC50 = ?
**Result** 8.01

**Query** Entry Cn1ccc(-c2cc(C(=O)Nc3cc(-c4ccc(=O)[nH]n4)nn3-c3ccccc3)ccc2C(F)(F)F)n1 : reported pIC50 = ?
**Result** 8.26

**Query** Entry CC(O)c1cc(NC(=O)c2cc(-c3ncccn3)c(C(F)(F)F)cc2F)n(-c2ccc(F)cc2)n1 (single isomer, unassigned) : reported pIC50 = ?
**Result** 7.80

**Query** Entry Cc1cc(NC(=O)c2cc(-c3ccn(C)n3)c(C(F)(F)F)cc2Cl)n(-c2cc(C)[nH]n2)n1 : reported pIC50 = ?
**Result** 9.09

**Query** Entry Cc1cc(-n2nc(C(=O)N(C)C)cc2NC(=O)c2ccc(C(F)(F)F)c(-c3ccn(C)n3)c2)[nH]n1 : reported pIC50 = ?
**Result** 7.49

**Query** Entry O=C(Nc1cc(Cn2cccn2)nn1-c1ccc(F)cc1)c1cc(-c2ncccn2)c(C(F)(F)F)cc1F : reported pIC50 = ?
**Result** 8.18

**Query** Entry Cn1ccc(-c2cc(C(=O)Nc3c(-c4ccccc4)nc4n3CCC4)ccc2C(F)(F)F)n1 : reported pIC50 = ?
**Result** 7.36

**Query** Entry CNC(=O)Cn1nnc(Cc2cc(NC(=O)c3ccc(C(F)(F)F)c(-c4ccn(C)n4)c3)n(-c3ccc(F)cc3)n2)n1 : reported pIC50 = ?
**Result** 8.80

meta.source: patent US9914736B2
